# METHOD NOTES: first-order primary biodegradation rate constant k (sorption-corrected, fDis-corrected) (d-1); higher = faster biodegradation
# CONDITION SUMMARY: river segment: Spain (ES) L_Contam; incubation temperature 24 °C
Category key, based on recorded first-order primary biodegradation rate constant k: low (below 0.2), intermediate (0.2 to below 0.3), high (0.3 or more)

COc1ccc(C(CN(C)C)C2(O)CCCCC2)cc1 (stereo not given) : low
Cc1ccc(C)c(OCCCC(C)(C)C(=O)O)c1 : high
CCNc1nc(Cl)nc(NC(C)C)n1 : high
COc1c(Cl)ccc(Cl)c1C(=O)O : intermediate
CC[C@@H](C(N)=O)N1CCCC1=O : intermediate

Asked: Hi there! Could you help me figure out the category for `c1ccc2[nH]nnc2c1` please?
Given back: intermediate

Asked: Hi there! Could you help me figure out the category for `COC(=O)Nc1nc2ccccc2[nH]1` please?
Given back: low

Asked: Hi there! Could you help me figure out the category for `CCOC(=O)c1ccc(O)cc1` please?
Given back: high

Asked: Hi there! Could you help me figure out the category for `CC1(C(=O)Nc2ccc(O)c(Cl)c2Cl)CCCCC1` please?
Given back: low

Asked: Hi there! Could you help me figure out the category for `NCC1(CC(=O)O)CCCCC1` please?
Given back: intermediate
